# protocolDescription: Pharmacokinetic study in humans, sodium salt in enteric capsules, single and multiple dose (Example 2)
# Assay type: in vivo, human
# reportedConditions: human, plasma, oral, 400 mg, 400 mg Dose Group, capsules once daily, Day 18, Mean
readoutLabel: AUC (µg·h/mL)
Just the number please, in µg·h/mL, no unit attached.

So for O=C(Nc1nc(=O)n(Cc2ccc(Cl)cc2)s1)c1ccc(Cl)cc1 [Compound of formula II] , the logged AUC turned out to be 1530

###

# protocolDescription: Pharmacokinetic study in humans, sodium salt in enteric capsules, single and multiple dose (Example 2)
# Format: in vivo, human
# reportedConditions: human, plasma, oral, 2000 mg, 2000 mg Dose Group, capsule once daily, Day 18, Median
readoutLabel: AUC(0-t) (µg·h/mL)
Number in µg·h/mL, nothing else.

Note to self: AUC(0-t) recorded for O=C(Nc1nc(=O)n(Cc2ccc(Cl)cc2)s1)c1ccc(Cl)cc1 was 978

###

# protocolDescription: Pharmacokinetic study in humans, sodium salt in enteric capsules, single and multiple dose (Example 2)
# Assay type: in vivo, human
# reportedConditions: human, plasma, oral, 400 mg, mean, dose group 400, capsule, Day 1
readoutLabel: AUC(0-t) (µg·h/mL)
Report the value in µg·h/mL with no unit label.

Short answer for O=C(Nc1nc(=O)n(Cc2ccc(Cl)cc2)s1)c1ccc(Cl)cc1 : AUC(0-t) was 158

###

# protocolDescription: Pharmacokinetic study in humans, sodium salt in enteric capsules, single and multiple dose (Example 2)
# Type: in vivo, human
# reportedConditions: human, plasma, oral, 800 mg, 800 mg Dose Group, capsules once daily, Day 18, Mean
readoutLabel: AUC (µg·h/mL)
Entry rule: numbers only, all in µg·h/mL.

O=C(Nc1nc(=O)n(Cc2ccc(Cl)cc2)s1)c1ccc(Cl)cc1 yielded AUC of 2560

###

# protocolDescription: Pharmacokinetic study in humans, sodium salt tablets, multiple dose (Example 3)
# Type: in vivo, human
# reportedConditions: human, plasma, oral, 200 mg, 200 mg dose group (212.12 mg sodium salt tablet once daily), 24 h after dose of Day 1; read-out: Clast at 24 hours, Mean
readoutLabel: concentration at 24 h (ng/mL)
State the answer as a number, implicitly in ng/mL.

Form: compound = O=C(Nc1nc(=O)n(Cc2ccc(Cl)cc2)s1)c1ccc(Cl)cc1 [Compound of formula II] ; concentration at 24 h = 11400

###

# protocolDescription: Pharmacokinetic study in humans, sodium salt in enteric capsules, single and multiple dose (Example 2)
# Assay type: in vivo, human
# reportedConditions: human, plasma, oral, 800 mg, 800 mg Dose Group, capsules once daily, Day 18, Median
readoutLabel: AUC (µg·h/mL)
Give a bare numeral; the unit µg·h/mL is implied.

Noted for O=C(Nc1nc(=O)n(Cc2ccc(Cl)cc2)s1)c1ccc(Cl)cc1 : its AUC reads 2730

###

# protocolDescription: Pharmacokinetic study in humans, sodium salt in enteric capsules, single and multiple dose (Example 2)
# Type: in vivo, human
# reportedConditions: human, plasma, oral, 800 mg, 800 mg Dose Group, capsules once daily, Day 18, Median; read-out: Cmax
readoutLabel: Cmax
Write the numeric value and append its unit.

Lookup result for O=C(Nc1nc(=O)n(Cc2ccc(Cl)cc2)s1)c1ccc(Cl)cc1 ; measured Cmax: 122 µg/mL

###

# protocolDescription: Pharmacokinetic study in humans, sodium salt in enteric capsules, single and multiple dose (Example 2)
# Format: in vivo, human
# reportedConditions: human, plasma, oral, 800 mg, 800 mg Dose Group, capsules once daily, Day 18, Mean; read-out: Cmax
readoutLabel: Cmax

Briefly, Cmax measured for O=C(Nc1nc(=O)n(Cc2ccc(Cl)cc2)s1)c1ccc(Cl)cc1 : 118 µg/mL

###

# protocolDescription: Pharmacokinetic study in humans, sodium salt tablets, multiple dose (Example 3)
# Assay type: in vivo, human
# reportedConditions: human, plasma, oral, 200 mg, 200 mg Dose Group, tablet once daily, Day 21, Mean; read-out: Clast
readoutLabel: concentration at 24 h (µg/mL)
Output spec: scalar in µg/mL, unitless text.

O=C(Nc1nc(=O)n(Cc2ccc(Cl)cc2)s1)c1ccc(Cl)cc1 has a reported concentration at 24 h of 80.4

###

# protocolDescription: Pharmacokinetic study in humans, sodium salt in enteric capsules, single and multiple dose (Example 2)
# Type: in vivo, human
# reportedConditions: human, plasma, oral, 400 mg, 400 mg Dose Group, capsules once daily, Day 18, Median; read-out: Cmax
readoutLabel: Cmax (µg/mL)
The response must be a number in µg/mL with no trailing unit.

Just so you know, measured Cmax for O=C(Nc1nc(=O)n(Cc2ccc(Cl)cc2)s1)c1ccc(Cl)cc1 [Compound of formula II] came out at 66.1

###

# protocolDescription: Pharmacokinetic study in humans, sodium salt in enteric capsules, single and multiple dose (Example 2)
# Assay type: in vivo, human
# reportedConditions: human, plasma, oral, 800 mg, 800 mg Dose Group, capsules once daily, Day 18, individual subjects; read-out: Clast
readoutLabel: concentration at 24 h (µg/mL)
Write the number in µg/mL without appending the unit.

Lab book: concentration at 24 h of O=C(Nc1nc(=O)n(Cc2ccc(Cl)cc2)s1)c1ccc(Cl)cc1 noted as 73.7

###

# protocolDescription: Pharmacokinetic study in humans, sodium salt tablets, multiple dose (Example 3)
# Assay type: in vivo, human
# reportedConditions: human, plasma, oral, 200 mg, 200 mg Dose Group, tablet once daily, Day 21, Mean; read-out: Cmax
readoutLabel: Cmax (µg/mL)
Reply numerically in µg/mL, unit not repeated.

Reported Cmax ( O=C(Nc1nc(=O)n(Cc2ccc(Cl)cc2)s1)c1ccc(Cl)cc1 ) = 86.8

###

# protocolDescription: Pharmacokinetic study in humans, sodium salt tablets, multiple dose (Example 3)
# Type: in vivo, human
# reportedConditions: human, plasma, oral, 400 mg, 400 mg Dose Group, tablet once daily, Day 21, individual subjects
readoutLabel: AUC(0-t) (µg·h/mL)
Numeric only. Scale: µg·h/mL

Measured AUC(0-t), O=C(Nc1nc(=O)n(Cc2ccc(Cl)cc2)s1)c1ccc(Cl)cc1 [Compound of formula II] : 2930

###

# protocolDescription: Pharmacokinetic study in humans, sodium salt tablets, multiple dose (Example 3)
# Type: in vivo, human
# reportedConditions: human, plasma, oral, 400 mg, 400 mg Dose Group, tablet once daily, Day 21, Median; read-out: Cmax
readoutLabel: Cmax (µg/mL)
Just the number please, in µg/mL, no unit attached.

The recorded Cmax for entry O=C(Nc1nc(=O)n(Cc2ccc(Cl)cc2)s1)c1ccc(Cl)cc1 [Compound of formula II] equals 132

###

# protocolDescription: Pharmacokinetic study in humans, sodium salt in enteric capsules, single and multiple dose (Example 2)
# Format: in vivo, human
# reportedConditions: human, plasma, oral, 2000 mg, 2000 mg Dose Group, capsule once daily, Day 18, Geometric Mean
readoutLabel: AUC(0-t) (µg·h/mL)
Enter your answer as a number in µg·h/mL; do not include the unit.

Value of AUC(0-t) reported for the molecule O=C(Nc1nc(=O)n(Cc2ccc(Cl)cc2)s1)c1ccc(Cl)cc1 is 1030

###

# protocolDescription: Pharmacokinetic study in humans, sodium salt tablets, multiple dose (Example 3)
# Format: in vivo, human
# reportedConditions: human, plasma, oral, 400 mg, 400 mg Dose Group, tablet once daily, Day 21, individual subjects; read-out: Cmax
readoutLabel: Cmax (µg/mL)
Field: numeric (µg/mL). Do not append units.

Short answer for O=C(Nc1nc(=O)n(Cc2ccc(Cl)cc2)s1)c1ccc(Cl)cc1 : Cmax was 132

###

# protocolDescription: Pharmacokinetic study in humans, sodium salt in enteric capsules, single and multiple dose (Example 2)
# Assay type: in vivo, human
# reportedConditions: human, plasma, oral, 800 mg, 800 mg Dose Group, capsules once daily, Day 18, Mean; read-out: Clast
readoutLabel: concentration at 24 h
Include the unit after the number when you answer.

Reported concentration at 24 h for O=C(Nc1nc(=O)n(Cc2ccc(Cl)cc2)s1)c1ccc(Cl)cc1 was 110 µg/mL

###

# protocolDescription: Pharmacokinetic study in humans, sodium salt tablets, multiple dose (Example 3)
# Type: in vivo, human
# reportedConditions: human, plasma, oral, 200 mg, 200 mg dose group (212.12 mg sodium salt tablet once daily), 24 h after dose of Day 21; read-out: Clast at 24 hours, Median
readoutLabel: concentration at 24 h (µg/mL)
Write down the numeric answer in µg/mL and omit the unit.

O=C(Nc1nc(=O)n(Cc2ccc(Cl)cc2)s1)c1ccc(Cl)cc1 has a reported concentration at 24 h of 76.9

###

# protocolDescription: Pharmacokinetic study in humans, sodium salt in enteric capsules, single and multiple dose (Example 2)
# Type: in vivo, human
# reportedConditions: human, plasma, oral, 400 mg, 400 mg Dose Group, capsules once daily, Day 18, Mean; read-out: Cmax
readoutLabel: Cmax (µg/mL)
Respond numerically; units are µg/mL and should not be typed.

Input O=C(Nc1nc(=O)n(Cc2ccc(Cl)cc2)s1)c1ccc(Cl)cc1 . Output Cmax: 70.8
